Reported koff values follow for various binders
assay-system: T1, mouse serum albumin (mouse, UniProt P07724 25-608)
T1 construct: Bought protein, immobilized on a CM5 chip by amine coupling; also called Mouse SA
procedure-summary: SPR (Biacore 8K), albumin immobilized on CM5 chip, 25 C, 1:1 kinetic fit
Method: The immobilization of the serum albumin to a Series S Sensor Chip CM5 surface is performed according to the manufacturer's instructions (Amine Coupling Kit BR-1000-50). Briefly, carboxyl groups on the sensor chip surfaces (flow cell 1 and 2) are activated by injecting 70 μL of a mixture containing 75 mg/mL EDC and 11.5 mg/mL NHS at 10 μL/min. […]
Numeric answer only, unit s⁻¹ assumed.

Past entries and their recorded results:
1) RLN Analog 3 (other, Single-chain fusion: VHH - (G4Q)5 L1 - RLN2 B chain (desB1) - L2 - RLN2 A chain) EVQLLESGGGLVQPGGSLRLSCAASGRYIDETAVAWFRQAPGKEREFVAGIGGGVDITYYADSVKGRFTISRDNSKNTLYLQMNSLRPEDTAVYYCAARPGRPLITSKVADLYPYWGQGTLVTVSSGGGGQGGGGQGGGGQGGGGQGGGGQSWMEEVIKLCGRELVRAQIAICGMSTWSGGGSGGSGGGQLYSALANKCCHVGCTKRSLARFC : 0.004
2) RLN Analog 12 (other, Single-chain fusion: VHH - (G4Q)5 L1 - RLN2 B chain (desB1) - L2 of thirteen residues - RLN2 A chain (desA1-4)) EVQLLESGGGLVQPGGSLRLSCAASGRYIDETAVAWFRQAPGKGREFVAGIGGGVDITYYADSVKGRFTISRDNSKNTLYLQMNSLRPEDTAVYYCAARPGRPLITSKVADLYPYWGQGTLVTVSSGGGGQGGGGQGGGGQGGGGQGGGGQSWMEEVIKLCGRELVRAQIAICGMSTWSGGGSGGSGGSGGGALANKCCHVGCTKRSLARFC : 0.0049
3) RLN Analog 2 (other, Single-chain fusion: VHH - (PGPA)8 L1 - RLN2 A chain - L2 - RLN2 B chain (desB1)) EVQLLESGGGLVQPGGSLRLSCAASGRYIDETAVAWFRQAPGKEREFVAGIGGGVDITYYADSVKGRFTISRDNSKNTLYLQMNSLRPEDTAVYYCAARPGRPLITSKVADLYPYWGQGTLVTVSSPGPAPGPAPGPAPGPAPGPAPGPAPGPAPGPAQLYSALANKCCHVGCTKRSLARFCGGGSGGSGGGSWMEEVIKLCGRELVRAQIAICGMSTWS : 0.0042

koff in this record for RLN Analog 14 (other, Single-chain fusion: VHH - (PGPQ)8 L1 - RLN2 A chain (desA1-4) - L2 - RLN2 B chain (desB1)) EVQLLESGGGLVQPGGSLRLSCAASGRYIDETAVAWFRQAPGKGREFVAGIGGGVDITYYADSVKGRFTISRDNSKNTLYLQMNSLRPEDTAVYYCAARPGRPLITSKVADLYPYWGQGTLVTVSSPGPQPGPQPGPQPGPQPGPQPGPQPGPQPGPQALANKCCHVGCTKRSLARFCGGGSGGSGGGSWMEEVIKLCGRELVRAQIAICGMSTWS : 0.0046

koff in this record for RLN Analog 8 (other, Single-chain fusion: VHH - (PGPQ)8 L1 - RLN2 B chain (desB1) - L2 - RLN2 A chain) EVQLLESGGGLVQPGGSLRLSCAASGRYIDETAVAWFRQAPGKGREFVAGIGGGVDITYYADSVKGRFTISRDNSKNTLYLQMNSLRPEDTAVYYCAARPGRPLITSKVADLYPYWGQGTLVTVSSPGPQPGPQPGPQPGPQPGPQPGPQPGPQPGPQSWMEEVIKLCGRELVRAQIAICGMSTWSGGGSGGSGGGQLYSALANKCCHVGCTKRSLARFC : 0.0039
